The measurements presented in this section are drawn from patent US20230256092A1.

target: T1, loop2 hCCR4-hCCR8 (human, UniProt P51685 1-355); experiment: FCM, Expi293 transfectants; Δ = significantly reduced binding activity vs wild-type hCCR8
T1 construct: chimera on Expi293 cells; hCCR8 172-202 replaced; also called loop2-human CCR4-substituted human CCR8

{"Binder": "10A11 (antibody, V domains shown, mouse hybridoma antibody, purified; also called m10A11) VH: EVQLVESGGRLVQPKGSLKLSCAASGFAFNTYALYWIRQAPGKGLEWVARIRSKSNNYATYYADSVKDRFTISRDDSQSMLYLQMNNLKTEDTAMYYCVRARFYYSDYGYAMDYWGQGTSVTVSS VL: DIVMTQAAPSVPVTPGESVSISCRSSKSLLHSNGNTYLYWFLQRPGQSPQLLIYRMSNLASGVPDRFSGSGSGTAFTLRISRVEAEDVGVYYCMQHLEYPLTFGAGTKLELKR", "binding result": "binds"}
